- System: RXRa homodimer (NR concentration 180 nM)
- MEASUREMENT NOTES: PBM binding z-score (relative to random genomic background probes); higher = stronger binding; sequences stand for … in GC…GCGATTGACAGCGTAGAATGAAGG
Threshold check on PBM binding z-score: at or above 4 gives Condition met, strictly below gives Condition not met.

Please review the entries below; each comes with its answer.
Hi, just wondering whether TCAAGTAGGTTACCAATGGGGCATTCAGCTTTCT shows PBM binding z-score of 4 or higher.
Condition not met

Hi, just wondering whether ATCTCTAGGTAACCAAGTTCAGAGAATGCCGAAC shows PBM binding z-score of 4 or higher.
Condition not met

Hi, just wondering whether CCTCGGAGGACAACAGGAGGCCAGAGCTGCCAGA shows PBM binding z-score of 4 or higher.
Condition not met

Hi, just wondering whether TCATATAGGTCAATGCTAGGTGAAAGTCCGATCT shows PBM binding z-score of 4 or higher.
Condition met

Continuing:
Hi, just wondering whether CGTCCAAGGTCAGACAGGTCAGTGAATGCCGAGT shows PBM binding z-score of 4 or higher.
Condition met

----------
- Test system: LXRa homodimer (NR concentration 270 nM)
- MEASUREMENT NOTES: PBM binding z-score (relative to random genomic background probes); higher = stronger binding; sequences stand for … in GC…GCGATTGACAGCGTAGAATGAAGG
// map PBM binding z-score onto a label; ranges range A: < -0.3; range B: ≥ -0.3 and < 0.02; range C: ≥ 0.02

Please review the entries below; each comes with its answer.
Lab note: sort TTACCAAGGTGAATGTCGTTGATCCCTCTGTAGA into the matching PBM binding z-score band.
range B

Lab note: sort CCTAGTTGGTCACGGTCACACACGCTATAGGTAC into the matching PBM binding z-score band.
range C

Lab note: sort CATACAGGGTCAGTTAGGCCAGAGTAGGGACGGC into the matching PBM binding z-score band.
range B

Continuing:
Lab note: sort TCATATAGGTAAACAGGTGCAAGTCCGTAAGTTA into the matching PBM binding z-score band.
range C

Lab note: sort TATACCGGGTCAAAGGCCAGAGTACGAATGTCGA into the matching PBM binding z-score band.
range C

Lab note: sort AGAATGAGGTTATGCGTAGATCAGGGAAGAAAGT into the matching PBM binding z-score band.
range B

Lab note: sort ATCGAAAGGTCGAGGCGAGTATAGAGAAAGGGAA into the matching PBM binding z-score band.
range A

Lab note: sort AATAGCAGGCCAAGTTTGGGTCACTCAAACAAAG into the matching PBM binding z-score band.
range B

Lab note: sort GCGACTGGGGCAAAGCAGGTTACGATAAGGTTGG into the matching PBM binding z-score band.
range A

----------
- System: PPARg DBDmut IVT, anti-PPARg (DBD mutation: PPARg1 K132A/R137A, NR concentration 270 nM)
- MEASUREMENT NOTES: PBM binding z-score (relative to random genomic background probes); higher = stronger binding; sequences stand for … in GC…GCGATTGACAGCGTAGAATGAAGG
QUANTITY KIND: PBM binding z-score
Hey, just send me the number, nothing else.

Observe how each entry below is paired with its result.
// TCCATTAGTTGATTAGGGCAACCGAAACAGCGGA : PBM binding z-score value = 0.941

// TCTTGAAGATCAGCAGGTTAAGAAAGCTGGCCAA : PBM binding z-score value = -0.481

// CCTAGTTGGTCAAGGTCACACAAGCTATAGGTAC : PBM binding z-score value = 1.04

// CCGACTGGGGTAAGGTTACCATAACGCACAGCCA : PBM binding z-score value = -1.25

// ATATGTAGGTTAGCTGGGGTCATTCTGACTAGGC : PBM binding z-score value = 2.13

// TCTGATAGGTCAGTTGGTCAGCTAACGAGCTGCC : PBM binding z-score value = 1.25

// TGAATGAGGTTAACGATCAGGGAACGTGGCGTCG : PBM binding z-score value = 0.129

// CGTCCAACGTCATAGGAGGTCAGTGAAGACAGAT : PBM binding z-score value = -0.0605

// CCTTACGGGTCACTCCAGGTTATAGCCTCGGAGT : PBM binding z-score value = -0.526

// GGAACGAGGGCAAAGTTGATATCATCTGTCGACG : PBM binding z-score value = 0.251

Continuing:
// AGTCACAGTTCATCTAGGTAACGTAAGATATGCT : PBM binding z-score value = 1.19

// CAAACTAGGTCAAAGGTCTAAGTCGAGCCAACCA : PBM binding z-score value = 5.58

// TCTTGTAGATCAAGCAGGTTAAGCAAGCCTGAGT : PBM binding z-score value = -0.0257

// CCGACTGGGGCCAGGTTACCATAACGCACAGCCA : PBM binding z-score value = -1.47

// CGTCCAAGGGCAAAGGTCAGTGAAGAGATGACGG : PBM binding z-score value = -0.877

// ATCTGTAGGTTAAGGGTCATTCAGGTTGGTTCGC : PBM binding z-score value = 1.69

// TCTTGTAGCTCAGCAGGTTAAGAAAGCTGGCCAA : PBM binding z-score value = -0.876

// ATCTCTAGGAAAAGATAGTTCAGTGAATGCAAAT : PBM binding z-score value = 0.248

// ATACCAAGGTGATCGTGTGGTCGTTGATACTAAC : PBM binding z-score value = 0.561

// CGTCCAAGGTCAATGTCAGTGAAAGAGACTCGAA : PBM binding z-score value = -0.37

// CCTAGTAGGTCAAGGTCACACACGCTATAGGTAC : PBM binding z-score value = 0.61

// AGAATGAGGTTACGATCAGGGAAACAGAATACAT : PBM binding z-score value = 0.837

// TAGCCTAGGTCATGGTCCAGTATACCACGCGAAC : PBM binding z-score value = -0.185

// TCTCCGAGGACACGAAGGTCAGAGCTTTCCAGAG : PBM binding z-score value = -0.524

// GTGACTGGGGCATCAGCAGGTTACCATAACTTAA : PBM binding z-score value = 0.266

// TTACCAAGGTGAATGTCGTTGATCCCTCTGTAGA : PBM binding z-score value = 0.0146

// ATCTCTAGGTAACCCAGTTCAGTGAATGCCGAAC : PBM binding z-score value = 1.28
